Attribution: patent US20250195521A1

Molecular target: KRAS G12D (Homo sapiens (Human), UniProt P01116+P62937, G12D)
Sequence (P01116 other isoform, or with tags, fused parts or gaps G12D): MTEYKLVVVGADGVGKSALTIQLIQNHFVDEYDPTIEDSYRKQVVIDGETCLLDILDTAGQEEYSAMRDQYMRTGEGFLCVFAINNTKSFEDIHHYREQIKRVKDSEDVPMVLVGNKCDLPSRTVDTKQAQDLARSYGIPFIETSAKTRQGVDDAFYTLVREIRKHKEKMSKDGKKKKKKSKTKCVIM
Sequence (P62937 whole entry): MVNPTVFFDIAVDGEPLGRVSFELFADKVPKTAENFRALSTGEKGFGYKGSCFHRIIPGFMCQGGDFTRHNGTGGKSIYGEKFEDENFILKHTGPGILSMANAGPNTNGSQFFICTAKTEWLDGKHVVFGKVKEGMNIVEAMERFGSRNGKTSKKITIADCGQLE
Test: Ras-Raf disruption/FRET/MOA assay (BRAF RBD, Cyclophilin A)
Format: biochemical
Conditions: read-out: KRAS G12D FRET IC50
pIC50: −log10 of the molar value.
Experimental endpoint: pIC50

INSERT INTO results (compound, experimental_value) VALUES
  ('CCn1c(-c2cccnc2[C@H](C)OC)c2c3cc(ccc31)-c1cc(O)cc(c1)C[C@H](NC(=O)[C@H](C(C)C)N(C)C(=O)C1Cc3nccn3C1)C(=O)N1CCC[C@H](N1)C(=O)OCC(C)(C)C2 (stereo partly drawn)', '7.00 to 8.00'),
  ('CO[C@@H](C)c1ncccc1-c1c2c3cc(ccc3n1C)-c1cc(O)cc(c1)C[C@H](NC(=O)[C@H](C(C)C)N(C)C(C)=O)C(=O)N1CCC[C@H](N1)C(=O)OCC(C)(C)C2', '< 5.00'),
  ('CCn1c(-c2cccnc2[C@H](C)OC)c2c3cc(ccc31)-c1csc(n1)C[C@H](NC(=O)[C@H](C(C)C)N(C)C(=O)N1C[C@@H]3OCCN(C)[C@@H]3C1)C(=O)N1CCC[C@H](N1)C(=O)OCC(C)(C)C2', '6.00 to 7.00'),
  ('CCn1c(-c2cccnc2[C@H](C)OC)c2c3cc(ccc31)-c1csc(n1)C[C@H](NC(=O)[C@H](C(C)C)N1CCC3(CCN(S(C)(=O)=O)C3)C1=O)C(=O)N1CCC[C@H](N1)C(=O)OCC(C)(C)C2 (stereo partly drawn)', '< 5.00'),
  ('CCn1c(-c2cccnc2[C@H](C)OC)c2c3cc(ccc31)-c1cc(c3cn[nH]c3c1)C[C@H](NC(=O)[C@H](C(C)C)N(C)C(C)=O)C(=O)N1CCC[C@H](N1)C(=O)OCC(C)(C)C2', '< 5.00'),
  ('CCn1c(-c2cnccc2COC)c2c3cc(ccc31)-c1cc(O)cc(c1)C[C@H](NC(=O)[C@H](C(C)C)N1CCCC1=O)C(=O)N1CCC[C@H](N1)C(=O)OCC(C)(C)C2', '5.00 to 6.00'),
  ('CCn1c(-c2cccnc2[C@H](C)OC)c2c3cc(ccc31)-c1csc(n1)C[C@H](NC(=O)[C@H](C(C)C)N(C)C(=O)N1CCO[C@@H](CN(C)C)C1)C(=O)N1CCC[C@H](N1)C(=O)OCC(C)(C)C2', '6.00 to 7.00'),
  ('CCn1c(-c2cccnc2[C@H](C)OC)c2c3cc(ccc31)-c1cc(cc(C(F)F)c1)C[C@H](NC(=O)[C@H](C(C)C)N(C)C(=O)[C@@H]1OCC[C@@H]1c1ccccc1)C(=O)N1CCC[C@H](N1)C(=O)OCC(C)(C)C2', '5.00 to 6.00'),
  ('CCn1c(-c2cccnc2[C@H](C)OC)c2c3cc(ccc31)-c1csc(n1)C[C@H](NC(=O)[C@H](C(C)C)N(C)C(=O)N1CC[C@@H](F)[C@H](N)C1)C(=O)N1CCC[C@H](N1)C(=O)OCC(C)(C)C2', '6.00 to 7.00');
